Every entry's value here was drawn from patent US20250276964A1.

target: WIZ (Homo sapiens, UniProt O95785+Q96SW2); construct: expressed in transfected cells; test: Quantification of WIZ protein levels in HiBit tag fusion protein assay (WIZ HiBit assay in 293T cells); assay type: cell-based; settings: HEK-293T, DMSO-normalized, curve-fitted percentage of WIZ-HiBit remaining at 25 uM; read-out: WIZ Amax
Sequence (O95785 whole entry, the tested form may be a part): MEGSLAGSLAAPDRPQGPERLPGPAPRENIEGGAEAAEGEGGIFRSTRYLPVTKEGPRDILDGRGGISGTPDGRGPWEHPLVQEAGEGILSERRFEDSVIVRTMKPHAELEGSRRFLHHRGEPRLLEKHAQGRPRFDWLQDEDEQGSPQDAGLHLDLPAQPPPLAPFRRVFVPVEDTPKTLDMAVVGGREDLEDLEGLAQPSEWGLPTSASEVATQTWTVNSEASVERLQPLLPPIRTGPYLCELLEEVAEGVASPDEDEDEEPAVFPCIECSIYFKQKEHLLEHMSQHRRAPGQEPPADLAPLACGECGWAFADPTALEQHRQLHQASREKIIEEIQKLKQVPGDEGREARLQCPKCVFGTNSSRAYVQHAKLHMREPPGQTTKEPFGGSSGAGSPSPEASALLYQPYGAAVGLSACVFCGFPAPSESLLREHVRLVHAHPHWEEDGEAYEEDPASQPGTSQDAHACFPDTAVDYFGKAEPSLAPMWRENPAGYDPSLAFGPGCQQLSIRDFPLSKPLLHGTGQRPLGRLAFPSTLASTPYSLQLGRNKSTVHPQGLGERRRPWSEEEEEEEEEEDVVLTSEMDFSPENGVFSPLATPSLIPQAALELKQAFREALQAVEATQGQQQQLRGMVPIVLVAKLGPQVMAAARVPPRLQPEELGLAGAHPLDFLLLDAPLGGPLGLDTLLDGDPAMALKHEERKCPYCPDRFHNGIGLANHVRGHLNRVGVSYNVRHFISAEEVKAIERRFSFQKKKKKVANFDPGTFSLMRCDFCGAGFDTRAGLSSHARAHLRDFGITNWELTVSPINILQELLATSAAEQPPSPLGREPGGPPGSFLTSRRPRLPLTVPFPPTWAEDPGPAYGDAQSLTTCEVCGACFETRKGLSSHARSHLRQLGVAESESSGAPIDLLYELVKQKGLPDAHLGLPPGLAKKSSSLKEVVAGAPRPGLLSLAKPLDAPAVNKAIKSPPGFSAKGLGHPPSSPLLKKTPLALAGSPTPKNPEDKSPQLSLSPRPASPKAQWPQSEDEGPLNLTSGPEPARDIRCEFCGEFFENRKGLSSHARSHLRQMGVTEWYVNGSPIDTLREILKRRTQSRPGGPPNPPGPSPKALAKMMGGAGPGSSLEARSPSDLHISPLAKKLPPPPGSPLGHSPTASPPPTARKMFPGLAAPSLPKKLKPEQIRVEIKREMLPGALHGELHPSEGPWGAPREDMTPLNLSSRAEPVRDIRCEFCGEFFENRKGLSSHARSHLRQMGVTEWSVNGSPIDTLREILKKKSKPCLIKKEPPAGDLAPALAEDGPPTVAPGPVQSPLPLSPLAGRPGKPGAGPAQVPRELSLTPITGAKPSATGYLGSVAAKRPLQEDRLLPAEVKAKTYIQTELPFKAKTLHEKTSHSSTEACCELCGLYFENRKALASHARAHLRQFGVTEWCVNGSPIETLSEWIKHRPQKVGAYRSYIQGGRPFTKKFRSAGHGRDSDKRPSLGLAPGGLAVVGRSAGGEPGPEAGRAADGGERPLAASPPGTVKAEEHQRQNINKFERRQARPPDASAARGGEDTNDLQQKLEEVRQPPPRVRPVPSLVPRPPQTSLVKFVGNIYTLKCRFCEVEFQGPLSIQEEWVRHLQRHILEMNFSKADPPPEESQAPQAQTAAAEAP
Sequence (Q96SW2 whole entry, the tested form may be a part): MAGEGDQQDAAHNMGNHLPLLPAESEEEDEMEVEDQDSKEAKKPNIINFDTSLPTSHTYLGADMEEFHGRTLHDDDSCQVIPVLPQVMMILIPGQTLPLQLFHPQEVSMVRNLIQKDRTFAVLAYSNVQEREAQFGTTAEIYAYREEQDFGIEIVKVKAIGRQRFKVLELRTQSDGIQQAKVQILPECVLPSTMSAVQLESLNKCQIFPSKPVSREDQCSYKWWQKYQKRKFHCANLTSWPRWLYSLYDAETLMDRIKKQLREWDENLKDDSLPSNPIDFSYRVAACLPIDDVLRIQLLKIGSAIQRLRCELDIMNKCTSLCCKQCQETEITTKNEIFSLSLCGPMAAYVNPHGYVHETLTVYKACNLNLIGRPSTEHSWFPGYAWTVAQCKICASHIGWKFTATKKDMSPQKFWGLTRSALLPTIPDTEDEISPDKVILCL
Sequence (Q16531 whole entry partner, the tested form may be a part): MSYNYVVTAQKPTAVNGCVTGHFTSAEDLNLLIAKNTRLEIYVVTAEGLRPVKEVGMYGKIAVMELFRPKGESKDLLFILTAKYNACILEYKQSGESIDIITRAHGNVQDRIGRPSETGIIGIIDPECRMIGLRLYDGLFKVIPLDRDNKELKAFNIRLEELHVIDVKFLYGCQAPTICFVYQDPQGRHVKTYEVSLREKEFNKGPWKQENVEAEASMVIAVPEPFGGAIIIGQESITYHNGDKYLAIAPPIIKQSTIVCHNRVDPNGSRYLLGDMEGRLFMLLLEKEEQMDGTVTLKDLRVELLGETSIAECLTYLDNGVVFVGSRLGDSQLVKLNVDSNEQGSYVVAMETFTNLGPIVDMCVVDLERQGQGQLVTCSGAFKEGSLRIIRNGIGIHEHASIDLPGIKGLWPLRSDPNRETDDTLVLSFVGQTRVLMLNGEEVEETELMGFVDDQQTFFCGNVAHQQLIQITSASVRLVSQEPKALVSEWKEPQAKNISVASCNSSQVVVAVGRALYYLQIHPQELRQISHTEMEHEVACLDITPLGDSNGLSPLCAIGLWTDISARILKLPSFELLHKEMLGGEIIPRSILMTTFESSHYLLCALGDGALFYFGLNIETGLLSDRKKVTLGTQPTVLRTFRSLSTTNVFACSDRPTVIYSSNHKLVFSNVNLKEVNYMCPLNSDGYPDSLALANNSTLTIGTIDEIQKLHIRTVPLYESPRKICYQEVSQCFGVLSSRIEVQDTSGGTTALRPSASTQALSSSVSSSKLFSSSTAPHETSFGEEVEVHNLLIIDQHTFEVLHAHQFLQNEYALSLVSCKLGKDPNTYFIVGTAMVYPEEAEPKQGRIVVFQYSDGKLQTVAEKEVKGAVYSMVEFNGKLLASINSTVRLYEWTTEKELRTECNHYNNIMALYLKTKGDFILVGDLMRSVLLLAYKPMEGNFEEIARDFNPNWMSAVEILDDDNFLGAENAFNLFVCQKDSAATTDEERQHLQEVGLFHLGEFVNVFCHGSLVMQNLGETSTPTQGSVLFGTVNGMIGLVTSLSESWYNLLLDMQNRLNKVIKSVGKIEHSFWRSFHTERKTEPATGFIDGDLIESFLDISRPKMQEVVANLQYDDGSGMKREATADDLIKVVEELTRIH
quantityMeasured: remaining activity at 25 µM (%)

Asked: Bench note: what remaining activity at 25 µM did O=C1CCN(c2noc3ccc(CN4CC5CCC4CN5CC4CCOCC4)cc23)C(=O)N1 (single isomer, unassigned) show?
Given back: 14

1: O=C1CCN(c2noc3ccc(CC4CCCNCC4)cc23)C(=O)N1 (centres unmarked)
2: O=C1CCN(c2noc3ccc(CN4CCN5C(=O)COC[C@H]5C4)cc23)C(=O)N1
Asked: Between 1 and 2 , which one shows the larger remaining activity at 25 µM value? // output: label of the selected item
Given back: 2
(2: 22%, 1: 14%)
